system: CIT; settings: concentration: 1 μM,replicates: in singlicate; n = 1;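 note: KINOMEscan kinase panel screen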
Binary call on %Inh: t from 20% upward, f beneath that.

1. CN(c1ccccc1CNc1nc(Nc2ccc3c(c2)CC(=O)N3)ncc1C(F)(F)F)S(C)(=O)=O :: f
2. C[C@@H]1CCN(C(=O)N2CCCC2)C[C@@H]1N(C)c1ncnc2[nH]ccc12 :: f
3. Cn1ccc2ncnc(Oc3ccc(NC(=O)Nc4ccnc(C(F)(F)F)c4)c(Cl)c3)c21 :: f
4. Cl.Nc1n[nH]c2cc(-c3ccccn3)ccc12 :: t
5. CC(=O)c1c(-c2ccncc2)[nH]c(-c2ccncc2)c1C :: t
6. Cc1cccc2c(-c3ccncc3)c(-c3ccc(F)cc3)nn12.Cl :: t
7. Cc1ccc(C(=O)Nc2ccc(Oc3ccc4nc(NC(=O)C5CC5)cn4c3)c(F)c2)c(=O)n1-c1ccccc1 :: t
8. CC(=O)Nc1ccc(-c2cc3ncnc(SCC(=O)O)c3s2)cc1 :: f
9. CCCC(=O)Nc1n[nH]c2ncccc12 :: f

Taken from paper PMC5540273.
